- Test system: SW480 cells
- TEST_PROTOCOL: Mitochondrial membrane potential (ΔΨm), DiOC6/PI flow cytometry
- Format: cell-based, human
- REPORTED_CONDITIONS: SW480, treated at IC50, 48 h; cells in process of death
- Experimental: Mitochondrial membrane permeability changes were assessed through the fluorescent dye DiOC6 (3,3’-dihexyloxacarbocyanine iodide, Thermo Fisher Scientiﬁc, Waltham, MA, USA), and propidium iodide (PI). The cells were seeded to a ﬁnal density of 2.5 x 10^5 cells/well in 6-well tissue culture plates and were allowed to grow for 24 h. […] This method allowed us quantifying cells with depolarized mitochondrial membrane ([34]).
QUANTITY_MEASURED: PI+ cells

Observe how each entry below is paired with its result.
>  <SMILES_TEXT>
C=CCSC[C@H](NC(=O)/C=C/c1ccc(OC(C)=O)c(OC(C)=O)c1)C(=O)OCCCCC

>  <MEASUREMENT_TARGET>
SW480 cells

>  <MEASURED_RESULT>
9,38%

$$$$
>  <SMILES_TEXT>
C=CCSC[C@H](NC(=O)/C=C/c1ccc(O)c(O)c1)C(=O)OC

>  <MEASUREMENT_TARGET>
SW480 cells

>  <MEASURED_RESULT>
8,16%

$$$$
>  <SMILES_TEXT>
C=CCSC[C@H](NC(=O)/C=C/c1ccc(O)c(O)c1)C(=O)OCC

>  <MEASUREMENT_TARGET>
SW480 cells

>  <MEASURED_RESULT>
21,9%

$$$$
>  <SMILES_TEXT>
C=CCSC[C@H](NC(=O)/C=C/c1ccc(O)c(O)c1)C(=O)OCCCCC

>  <MEASUREMENT_TARGET>
SW480 cells

>  <MEASURED_RESULT>
8,32%

$$$$

Attention now shifts to the item below.
With SW480 cells as the test system, `C=CCSC[C@H](NC(=O)/C=C/c1ccc(O)c(O)c1)C(=O)OCCC` showed PI+ cells of 9,13%

====

QUANTITY_MEASURED: melting point

Observe how each entry below is paired with its result.
>  <COMPOUND>
C=CCSC[C@H](N)C(=O)OCCC [3c, Propyl S-prop-2-en-1-ylcysteinate]

>  <MEASURED_RESULT>
115 to 117 °C

$$$$
>  <COMPOUND>
C=CCSC[C@H](NC(=O)/C=C/c1ccc(O)c(O)c1)C(=O)OC

>  <MEASURED_RESULT>
101 to 103 °C

$$$$
>  <COMPOUND>
C=CCSC[C@H](N)C(=O)OC

>  <MEASURED_RESULT>
114 to 116 °C

$$$$
>  <COMPOUND>
C=CCSC[C@H](NC(=O)/C=C/c1ccc(O)c(O)c1)C(=O)OCCCC

>  <MEASURED_RESULT>
119 to 121 °C

$$$$
>  <COMPOUND>
C=CCSC[C@H](NC(=O)/C=C/c1ccc(OC(C)=O)c(OC(C)=O)c1)C(=O)OCCC

>  <MEASURED_RESULT>
80 to 82 °C

$$$$

Attention now shifts to the item below.
Looking up `C=CCSC[C@H](NC(=O)/C=C/c1ccc(OC(C)=O)c(OC(C)=O)c1)C(=O)OCCCCC` , I found its melting point recorded as 101 to 103 °C
